# TESTED_ON: Cytochrome P450 3A4 (Homo sapiens) (UniProt P08684)
# Sequence (P08684 whole entry, looked up): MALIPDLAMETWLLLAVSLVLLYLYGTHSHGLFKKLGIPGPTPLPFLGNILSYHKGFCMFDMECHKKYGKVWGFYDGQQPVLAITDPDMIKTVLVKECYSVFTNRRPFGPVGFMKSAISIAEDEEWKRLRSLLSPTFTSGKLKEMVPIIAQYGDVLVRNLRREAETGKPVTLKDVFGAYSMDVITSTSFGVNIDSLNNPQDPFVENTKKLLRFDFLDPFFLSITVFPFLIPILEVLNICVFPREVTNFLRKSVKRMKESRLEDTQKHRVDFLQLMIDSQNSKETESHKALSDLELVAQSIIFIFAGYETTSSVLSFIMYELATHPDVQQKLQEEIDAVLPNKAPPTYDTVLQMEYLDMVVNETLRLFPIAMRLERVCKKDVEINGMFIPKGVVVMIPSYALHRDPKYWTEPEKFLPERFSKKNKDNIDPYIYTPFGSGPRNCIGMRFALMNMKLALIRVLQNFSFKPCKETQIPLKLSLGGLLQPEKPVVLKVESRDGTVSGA
# EXPERIMENT: qHTS Assay for Inhibitors and Substrates of Cytochrome P450 3A4 (AID 884); also: nearly all actives have a fitted effect of over 50% in size
# RUN_PARAMETERS: recombinant CYP3A4, Luciferin-PPXE luminescence; series mostly up to 57.1 µM
# Procedure: NIH Molecular Libraries Screening Centers Network [MLSCN] NIH Chemical Genomics Center [NCGC] The P450 gene superfamily is involved in the metabolism and clearance of xenobiotics. […] The luciferin is then measured by luminescence after the addition of a luciferase detection reagent. […] Inhibitors and some substrates limit the production of luciferin, and decrease measured luminescence. […]
Inconclusive results are not listed. Activity calls are given as the source filed them. Calls follow the shape of the dose curve; as a rule, active = well fitted inhibition curve with a large enough effect; inconclusive = small, poorly fitted or top-dose-only effect; inactive = no such curve, though single readings can be large or run the other way. Peptide text beside a SMILES is read from it.
Allowed answers: 1 for active, 0 for inactive

A selection of reference data follows.
Tell me the recorded outcome of this test for CC(=O)NC(CC(=O)O)C(=O)NC(CCC(=O)O)C(=O)O (stereo not drawn) (Ac-Asp-Glu-OH; configuration not given here) .
0

Please do the same for O=C(O)C1(O)C[C@H](O)C(O)[C@@H](O)C1 (some centres undefined) as well.
0

Please do the same for CC(C)=CC1C(CO)C1(C)C (centres undefined) as well.
0

Please do the same for CC(C)CCCC(C)C1CCC2C3CC(=O)[C@H]4CC(O)CC[C@]4(C)C3CC[C@@]12C (some centres undefined) as well.
0

Please do the same for C#C[C@@]1(OC(C)=O)CC[C@@H]2[C@@H]3CCC4=C[C@@H](OC(C)=O)CC[C@H]4[C@H]3CC[C@]21C as well.
0

***
Tell me the recorded outcome of this test for CCN(CC)Cc1ccc(Nc2ccnc3cc(Cl)ccc23)cc1O .
0

Please do the same for COC(=O)CC1C(C)(C)C(=O)C2CC3=C4CC(=O)OC(c5ccoc5)[C@]4(C)CCC3[C@@]1(C)C2=O (some centres undefined) as well.
1

Please do the same for NC(=O)c1ccc[n+]([C@@H]2OC(COP(=O)([O-])OP(=O)(O)OCC3OC(n4cnc5c(N)ncnc54)C(OP(=O)(O)O)C3O)C(O)C2O)c1 (some centres undefined) as well.
0

Please do the same for CCC(C)C(NC)C(=O)O (centres undefined) as well.
0

Please do the same for COc1cc(/C=C/C(=O)O)cc(OC)c1OC as well.
0

Please do the same for Nc1ncnc2nc(Cl)[nH]c12 as well.
0

Please do the same for Oc1cc(O)c2c(c1)OC(c1cc(O)c(O)c(O)c1)C(O)C2 (centres undefined) as well.
0

Please do the same for C=C(C)C1CC[C@]2(CO)CC[C@@]3(C)[C@H](CCC4[C@@]5(C)CCC(O)C(C)(C)C5CC[C@@]43C)C12 (some centres undefined) as well.
0

Please do the same for CC(=O)OCC(OC(C)=O)C(OC(C)=O)C(OC(C)=O)C(OC(C)=O)C(COC(C)=O)OC(C)=O (centres undefined) as well.
0

* * *

# Test system: ATS95
# EXPERIMENT: qHTS profiling for inhibitors of Plasmodium falciparum proliferation (AID 504749);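 also: 0% = DMSO vehicle and full inhibition = artemisinin control; nearly all actives have a fitted effect of over 60% in size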
# RUN_PARAMETERS: P. falciparum in erythrocytes, SYBR Green DNA, 72 h; series mostly up to 12.8 µM
Inconclusive results are not listed. Activity calls are given as the source filed them. The call rests on the fitted dose curve; in most records, active means well fitted inhibition curve with a large enough effect; inconclusive means small, poorly fitted or top-dose-only effect; inactive means flat fitted curve, though single readings scatter.
PROPERTY_LABEL: outcome

# outcome lookup, item CC1(C)OC2CO[C@]3(COS(N)(=O)=O)OC(C)(C)OC3C2O1 (stereo partly drawn)
inactive

Please do the same for CN1CC(=O)N=C1N as well.
inactive

Please do the same for C[C@@H]1C[C@H]2[C@@H]3C[C@H](F)C4=CC(=O)C=C[C@@]4(C)[C@]3(F)[C@H](O)C[C@]2(C)[C@@]1(O)C(=O)CO as well.
inactive

All figures here come from PubChem BioAssay (NCATS).
